# assay.details: gradient 5% acetonitrile 3 min, to 50% in 2 min, to 85% in 15 min, held 3 min, 100 µL/min
# test.parameters: column: Zorbax Extend-C18 2.1 x 50 mm; eluents: water / acetonitrile, 0.1% formic acid
measurement.type: RP-LC retention time (s)
Give the quantity in s, number only.

Examples with answers:
>  <compound>
CSc1cccc(NC(=O)c2cccn2Cc2noc(C)n2)c1

>  <RP-LC retention time [s]>
899

$$$$
>  <compound>
COc1cccc(CNC(=O)C2CCCN(c3nnc(C)c4c(C)n(-c5ccccc5)nc34)C2)c1 (centres undefined)

>  <RP-LC retention time [s]>
715

$$$$
>  <compound>
O=C(NCCn1nnc2cc(C(=O)N3CCCC3)ccc21)Nc1ccc(Br)cc1

>  <RP-LC retention time [s]>
704

$$$$

Attention now turns to another entry.
Entry COc1ccc2c(c1)c(CN1CCC(C(=O)NC3CCCCCC3)CC1)cn2C ; RP-LC retention time = 712

====

# assay.details: gradient 5% acetonitrile 3 min, to 50% in 2 min, to 85% in 15 min, held 3 min, 100 µL/min
# test.parameters: column: Zorbax Extend-C18 2.1 x 50 mm; eluents: water / acetonitrile, 0.1% formic acid
Category | rule: reported RP-LC retention time within range, see Low = under 600 s, Medium = from 600 s up to 900 s, High = 900 s and over

Where would CSc1cccc(NC(=O)N2CCN(Cc3nc4cc(C)ccc4o3)CC2)c1 land among the classes by reported RP-LC retention time?
Medium

Class label required: O=C(NCCc1ccncc1)C1CN(C(=O)COc2ccccc2F)C1
Low

Form: Item = c1ccc(-n2nnc(-c3noc(-c4cccnc4)n3)c2-c2ccncc2)cc1 ; Class = ?
Medium

Band of CCc1ccccc1S(=O)(=O)N1C[C@@H]2C(=O)N(C(CC)c3cccs3)C(=O)[C@@H]2C1 (some centres undefined) ?
High

Category lookup for the compound CCCn1c(C)cnc1C1CN(C(=O)c2ccoc2)C1
Low

Sort Cc1ccccc1Nc1c(-c2ccc(Cl)cc2)nc2ccccn12 into one of the categories.
Medium

Input O=S(=O)(c1ccc(Cl)s1)N1CCc2nc(-c3ccccc3)ncc2C1 ; output its category
High

====

# assay.details: gradient 5% acetonitrile 3 min, to 50% in 2 min, to 85% in 15 min, held 3 min, 100 µL/min
# test.parameters: column: Zorbax Extend-C18 2.1 x 50 mm; eluents: water / acetonitrile, 0.1% formic acid
RP-LC retention time: recorded values
Give the value, in units of s, as a plain number.

Worked examples, 6 molecules total:
>  <molecule>
CN(C)C(CNC(=O)c1cc(-c2ccccc2)on1)c1cccs1 (stereo not drawn)

>  <display.unit>
s

>  <measured.value>
663

$$$$
>  <molecule>
CCOC(=O)c1cc(S(=O)(=O)N2CCCC2C(=O)Nc2ccccc2C(F)(F)F)cn1C (stereo not drawn)

>  <display.unit>
s

>  <measured.value>
999

$$$$
>  <molecule>
COc1ccc(-c2ccnc3nc(CCc4ccc(OC)c(OC)c4)nn23)cc1

>  <display.unit>
s

>  <measured.value>
859

$$$$
>  <molecule>
CN1C(=O)C(C)(C)c2cc(S(=O)(=O)N3CCN(c4ccccn4)CC3)ccc21

>  <display.unit>
s

>  <measured.value>
633

$$$$
>  <molecule>
COc1ccc(Nc2c(-c3ccc(C)cc3)nc3cnc(Br)cn23)cc1OC

>  <display.unit>
s

>  <measured.value>
915

$$$$
>  <molecule>
CCc1ccc(N2CC(c3noc(-c4ccccc4F)n3)CC2=O)cc1 (stereo not drawn)

>  <display.unit>
s

>  <measured.value>
1100

$$$$

The recorded RP-LC retention time for entry COc1cccc(-c2noc(N3CCN(c4ccccn4)CC3)n2)c1 equals 678

Lab book: RP-LC retention time of COCCNC(=O)c1cn(C)c2ncccc12 noted as 582

Quick note, RP-LC retention time for Cc1ccc(S(=O)(=O)c2cnc(N3CCN(c4cccc(C)c4)CC3)nc2N)cc1 landed at 1130

Recorded result, CCC(=O)N1CCc2cc(N3CC(C(=O)NCc4ccncc4)CC3=O)ccc21 (stereo not drawn) , RP-LC retention time: 578

# RP-LC retention time of COc1cc(NC(=O)Nc2nccn(-c3ccccc3)c2=O)cc(OC)c1 = 886

So for COc1ccccc1CCC(=O)NCc1cccnc1OC , the logged RP-LC retention time turned out to be 749

RP-LC retention time recorded for this molecule, Cc1oc(-c2ccc(C(=O)NCCCN3CCN(C)CC3)cc2)nc1CSc1ccccc1 , is 645

====

# assay.details: gradient 5% acetonitrile 3 min, to 50% in 2 min, to 85% in 15 min, held 3 min, 100 µL/min
# test.parameters: column: Zorbax Extend-C18 2.1 x 50 mm; eluents: water / acetonitrile, 0.1% formic acid
Param label: returns fulfilled when RP-LC retention time < 900 s, returns not fulfilled otherwise, including exact equality.

Solved entries (count: 3):
>  <compound>
CCOC(=O)c1noc2nc(C)nc(NCCc3ccc(C)cc3)c12

>  <qualitative.label>
not fulfilled

$$$$
>  <compound>
Cc1nc([C@H]2CCN(Cc3ccc4[nH]ccc4c3)C[C@H]2N(C)C)n[nH]1

>  <qualitative.label>
fulfilled

$$$$
>  <compound>
Cc1nnc(NC(=O)C2CCN(C(=O)c3ccccc3F)CC2)s1

>  <qualitative.label>
fulfilled

$$$$

Quick check: RP-LC retention time of COc1ccc(C2(C(=O)N3CCC(Cc4nc(-c5ccccc5)no4)CC3)CC2)cc1 under 900 s?
not fulfilled

RP-LC retention time under 900 s? Item: COCCCNC(=O)c1ccc(-c2ccc(N3CCSCC3)nc2)cc1
fulfilled

Find out if reported RP-LC retention time for CCOC(=O)C1CCN(C(=O)C2CCN(S(=O)(=O)c3cc(Cl)ccc3OCC)CC2)CC1 is less than 900 s
not fulfilled

# strict comparison: is reported RP-LC retention time < 900 s? input = Cc1nc2c(sc3nc(-c4ccccc4)ccc32)c(=O)n1CC(=O)Nc1ccccc1C(F)(F)F
not fulfilled

Field: below-cutoff. Rule: recorded RP-LC retention time strictly less than 900 s. Subject: CC(=O)N(C1CCOCC1)C1CCN(S(=O)(=O)c2cc(F)ccc2C)CC1
fulfilled

====

# assay.details: gradient 5% acetonitrile 3 min, to 50% in 2 min, to 85% in 15 min, held 3 min, 100 µL/min
# test.parameters: column: Zorbax Extend-C18 2.1 x 50 mm; eluents: water / acetonitrile, 0.1% formic acid
In this section we review reported RP-LC retention time values for a set of compounds.
The answer is to be given in s; state only the numeric part.

Recorded RP-LC retention time, per entry:
>  <compound>
COCCNC(=O)C1c2cc(OC)c(OC)cc2C(=O)N(C)C1c1ccc(OC)c(OC)c1 (stereo unspecified)

>  <display.unit>
s

>  <RP-LC retention time>
642

$$$$
>  <compound>
CCOc1ccc(OCC)c(N2C=C(C#N)S(=O)(=O)c3ccccc32)c1

>  <display.unit>
s

>  <RP-LC retention time>
1000

$$$$
>  <compound>
CCOC(=O)C(=O)NCc1n[nH]c(=O)c2ccccc12

>  <display.unit>
s

>  <RP-LC retention time>
579

$$$$
>  <compound>
CSc1cccc(NC(=O)Cn2c(C)nc3c(sc4nc(-c5ccccc5)ccc43)c2=O)c1

>  <display.unit>
s

>  <RP-LC retention time>
1100

$$$$
>  <compound>
Cc1ccsc1C(=O)NCc1ccc2c(c1)ncn2C

>  <display.unit>
s

>  <RP-LC retention time>
597

$$$$

// field: RP-LC retention time; key: Cc1ccc(C(C)C)cc1S(=O)(=O)Nc1cccc(-c2cn3ccccc3n2)c1 ; value = 739

get_value(item= Cn1cnc2cc(-c3noc(CNC(=O)Cc4ccc(Cl)cc4)n3)ccc21 , readout=RP-LC retention time) returns 652

In plain terms, Cc1ccc(CNC(=O)C2CCN(c3cnc4nccnc4c3)CC2)cc1 has a documented RP-LC retention time of 705

// RP-LC retention time value for CCCC(=O)N1CCC2(C1)C(=O)Nc1ccc(OC)cc12 (stereo unspecified) : 652

# RP-LC retention time (compound: Cn1nc(C2CCN(C(=O)NCc3ccccc3)CC2)c2c1CCOC2 ) is 668

Entry under test: O=C(O)CCCCCNc1nc(-c2ccccc2)nc2ccccc12 . Its RP-LC retention time was 623

get_value(item= CCC(C)NC(=O)c1ccc2c(c1)CC(=O)N2CC (stereo unspecified) , readout=RP-LC retention time) returns 691

====

# assay.details: gradient 5% acetonitrile 3 min, to 50% in 2 min, to 85% in 15 min, held 3 min, 100 µL/min
# test.parameters: column: Zorbax Extend-C18 2.1 x 50 mm; eluents: water / acetonitrile, 0.1% formic acid
measurement.type: RP-LC retention time (s)
Numeric answer only, unit s assumed.

Below, 3 compounds whose answers are already recorded.
>  <compound>
CNC(=O)N1CCC(C2CCN(C(=O)c3ccc(Cl)s3)C2)CC1 (centres undefined)

>  <measurement.type>
RP-LC retention time

>  <display.unit>
s

>  <measured.value>
705

$$$$
>  <compound>
CCn1c(CCC(=O)NCc2ccc(F)cc2)nc2c(C)cccc2c1=O

>  <measurement.type>
RP-LC retention time

>  <display.unit>
s

>  <measured.value>
848

$$$$
>  <compound>
O=C(Nc1nnc2n1CCS2)c1cc(Br)ccc1Cl

>  <measurement.type>
RP-LC retention time

>  <display.unit>
s

>  <measured.value>
657

$$$$

The value of RP-LC retention time measured for the compound CC(C)OCCCNC(=O)C1CCN(S(=O)(=O)c2ccc3c(c2)CCCC(=O)N3)CC1 turned out to be 674

Reported RP-LC retention time for Cc1ccc(-c2nnc(C)c(NCc3cccs3)n2)cc1 was 700

Record summary for CNC(=O)[C@@H]1CN(C(=O)Cc2ccsc2)C[C@H]1c1n[nH]c(C)n1 : reported RP-LC retention time = 565

For reference, reported RP-LC retention time for Cc1ccc(NC(=O)N2C[C@@H]3C[C@H](NS(=O)(=O)c4ccccc4)[C@H]2C3)c(C)c1 stands at 832

Sure, the documented RP-LC retention time for Cn1cc(S(=O)(=O)N2CCC(C(=O)N3CCc4ccccc4C3)CC2)cc1C(=O)N1CCCC1 is 782

RP-LC retention time recorded for this compound, CCCNC(=O)Cc1c(C)n(C)c2nc(-c3ccccc3)nn2c1=O , is 660
